The molecules listed here are annotated with their growth inhibition.
# assay_remarks: NCI Yeast Anticancer Drug Screen. Data for the rad18 strain (AID 177)
# run_parameters: S. cerevisiae rad18 mutant growth inhibition; at 3.7 µM; hits give high values
About 79,000 compounds went through this panel and 15% of them were active in at least one assay; those are over-represented in the sample as a whole.
Please give a number only; it is taken to be in %.

{"columns": ["molecule", "measured_quantity", "unit_info", "measured"],
 "data": [
  ["CC(=O)[O][Bi]([c]1ccccc1)[c]1ccccc1", "growth inhibition", "%", 30],
  ["COC(=O)C1=C(C(=O)OC)C2(C)C=CC1O2 (configuration not stated)", "growth inhibition", "%", -6]
]}

[in] Tell me growth inhibition reported for CN1c2ccc(Cl)cc2C(=O)NC1c1ccc([N+](=O)[O-])s1 (configuration not stated)
[out] 25

[in] Assign growth inhibition to the following record: CCOc1ccc2c(c1)c(CC(=O)O)cn2C
[out] 5

====

# assay_remarks: NCI Yeast Anticancer Drug Screen. Data for the rad52 strain (AID 147);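 further: 0% = growth of vehicle-treated control cultures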
# run_parameters: S. cerevisiae rad52 mutant growth inhibition; at 33.0 µM
Compounds without any hit were thinned out: in the full panel of roughly 79,000, 15% have a hit. Active and inactive are the calls of the source. Rule as the data show it: active = growth inhibition above about 70%; inactive = the rest.
Your reply should match one of these outcome classes. true (1) for active, false (0) for inactive

Recorded results for 3 compounds are shown here.
{"columns": ["compound", "class_name"],
 "data": [
  ["CCN(CC)C(C)(C)C(=O)/C=C/c1ccccc1", "false (0)"],
  ["c1ccc2c(c1)C(=NCCCN1CCCCCC1)c1cccn1-2", "false (0)"],
  ["CCc1ncnc2cc(OCC3CO3)c(OC)cc12 (stereo not drawn)", "true (1)"]
]}

[in] Identify the outcome logged in this assay for the compound shown: NC(=S)N/N=C\c1nccc2ccccc12
[out] true (1)

[in] Dear colleague, could you share the recorded outcome for CC1CCN(CCC(=O)c2ccc(Cl)cc2)CC1 when you have a moment?
[out] false (0)

[in] For this compound, state the assay outcome: CCCCCCCCCCC1CCC(=O)O1 (stereo not drawn)
[out] false (0)

[in] Query: recorded result category for C=CC(C)(O)CCC1C(=C)C(O)CC2C(C)(C)CCCC12C (stereo not drawn) in this test
[out] false (0)

[in] Hello, I am checking results. What call was entered for O=C(N=Nc1cc(Cl)ccc1Cl)NNc1cc(Cl)ccc1Cl ?
[out] false (0)

====

# assay_remarks: NCI Yeast Anticancer Drug Screen. Data for the cln2 rad14 strain (AID 165);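 further: 0% = growth equal to vehicle treated cultures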
# run_parameters: S. cerevisiae cln2 rad14 strain, at 50.0 µM, hits give high values
This is part of a sample that, as a whole, favours compounds with a hit. Of some 79,000 tested, about 15% had one in any assay. Activity calls are given as the source filed them. No stated cut-off is given here; in the data, active means growth inhibition above about 70%; inactive means the rest.
Entries and their growth inhibition values follow.

Examples from the recorded data:
{"columns": ["chemical_string", "growth inhibition"],
 "data": [
  ["CSC(=S)N/N=C(\\C)c1cccc(C)n1", "99.2% (active)"],
  ["Oc1cccc2c(Cl)ccnc12", "91.8% (active)"],
  ["CC(C)/C(Cl)=N\\OC(=O)Nc1cccc(Cl)c1", "72.3% (active)"],
  ["O=C(c1cc(Br)ccc1O)c1cc(Br)ccc1O", "98.7% (active)"],
  ["COc1ccc(Br)c(C(=O)Sc2nnnn2-c2cccc(Cl)c2)c1", "76.2% (active)"]
]}

Now, please, on to the next molecule.
[in] Item CCCS(=O)(=O)Nc1ccc(Nc2c3ccccc3nc3ccccc23)c(OC)c1 : provide growth inhibition
[out] 52% (inactive)

These measurements were taken from PubChem BioAssay (NCI).
